Where these numbers come from: ChEMBL document CHEMBL1154509

# assay name: Toxicity against human dermal fibroblasts assessed as cell viability at 200 uM relative to control
# Format: cell-based, Fibroblast
# run parameters: read-out: Activity
endpoint: viability at 200 µM (%)
One number for each entry, in %.

query: I have this molecule here, O=C1O[C@H]([C@@H](O)CO)C(O)=C1O , and I need its recorded viability at 200 µM.
result: 95.4

* * *

# assay name: Anti-aging activity in human dermal fibroblasts assessed as rate of procollagen formation at 0.0005 weight % concentration relative to retinol
# Assay type: functional, Fibroblast
Please provide measured Activity for the entries that follow.
One number for each entry, in %.

Solved cases (3 shown):
{"columns": ["mol smiles", "Activity [%]"],
 "data": [
  ["CC(/C=C/C1=CCCCC1(C)C)=C\\C=C\\C(C)=C\\COC(=O)c1cc(O)c2ccccc2c1O", 37],
  ["CC(/C=C/C1=CCCCC1(C)C)=C\\C=C\\C(C)=C\\COC(=O)c1c(O)cccc1O", 102],
  ["COc1cccc(C(=O)OC/C=C(C)/C=C/C=C(C)/C=C/C2=CCCCC2(C)C)c1O", 116]
]}

Record Activity for all entries; do not skip any.
1. COc1cc(O)c(C(=O)OC/C=C(C)/C=C/C=C(C)/C=C/C2=CCCCC2(C)C)c(O)c1
2. CC(/C=C/C1=CCCCC1(C)C)=C\C=C\C(C)=C\COC(=O)c1cc(O)ccc1O

result:
[55, 55]

* * *

# assay name: Toxicity against human dermal fibroblasts
# Format: cell-based, Fibroblast
endpoint: IC50 (µM)
Answers are plain numbers, in µM.

Record IC50 for all entries; do not skip any.
1. CC(/C=C/C1=CCCCC1(C)C)=C\C=C\C(C)=C\COC(=O)c1ccccc1O
2. CC(/C=C/C1=CCCCC1(C)C)=C\C=C\C(C)=C\COC(=O)c1cc(O)c(O)c(O)c1
3. CC(=O)Oc1ccccc1C(=O)OC/C=C(C)/C=C/C=C(C)/C=C/C1=CCCCC1(C)C

result:
1: 150; 2: 35; 3: 150

* * *

Please provide measured viability at 1 µM for the entries that follow.
# assay name: Toxicity against human dermal fibroblasts assessed as cell viability at 1 uM relative to control
# Assay type: cell-based, Fibroblast
# run parameters: read-out: Activity
Answers are plain numbers, in %.

{"columns": ["mol smiles", "experimental value"],
 "data": [
  ["CC(/C=C/C1=CCCCC1(C)C)=C\\C=C\\C(C)=C\\COC(=O)c1c(O)cccc1O", 88.1]
]}

Now take the following molecule into account.
query: I have this molecule here, CC(/C=C/C1=CCCCC1(C)C)=C\C=C\C(C)=C\COC(=O)c1cccc(O)c1O , and I need its recorded viability at 1 µM.
result: 71.8

* * *

# target of assay: Tyrosinase (Mus musculus)
# assay name: Inhibition of tyrosinase activity in mouse B16/F10 cells at 5 uM relative to control
# Type: cell-based
Please provide measured inhibition for the entries that follow.
Give bare numbers, in %.

Record inhibition for all entries; do not skip any.
1. CC(/C=C/C1=CCCCC1(C)C)=C\C=C\C(C)=C\COC(=O)c1cc(O)ccc1O
2. COc1cc(O)c(C(=O)OC/C=C(C)/C=C/C=C(C)/C=C/C2=CCCCC2(C)C)c(O)c1
3. COc1cccc(C(=O)OC/C=C(C)/C=C/C=C(C)/C=C/C2=CCCCC2(C)C)c1O

result:
1: 31.3; 2: 41.9; 3: 38.1

Record inhibition for all entries; do not skip any.
1. CC(/C=C/C1=CCCCC1(C)C)=C\C=C\C(C)=C\COC(=O)c1cc(O)c(O)c(O)c1
2. CC(/C=C/C1=CCCCC1(C)C)=C\C=C\C(C)=C\COC(=O)c1cccc(O)c1O
3. CC(/C=C/C1=CCCCC1(C)C)=C\C=C\C(C)=C\COC(=O)c1c(O)cccc1O

result:
49.6
36.7
45.4

* * *

# assay name: Toxicity against human dermal fibroblasts assessed as cell viability at 10 uM relative to control
# Assay type: cell-based, Fibroblast
# run parameters: read-out: Activity
endpoint: viability at 10 µM (%)
Give bare numbers, in %.

{"columns": ["molecule", "viability at 10 µM [%]"],
 "data": [
  ["COc1cccc(C(=O)OC/C=C(C)/C=C/C=C(C)/C=C/C2=CCCCC2(C)C)c1O", 126]
]}

Record viability at 10 µM for all entries; do not skip any.
1. O=C(O[C@@H]1Cc2c(O)cc(O)cc2O[C@@H]1c1cc(O)c(O)c(O)c1)c1cc(O)c(O)c(O)c1 [EPIGALOCATECHIN GALLATE]
2. COc1cc(O)c(C(=O)OC/C=C(C)/C=C/C=C(C)/C=C/C2=CCCCC2(C)C)c(O)c1

result:
95.2
92.6

* * *

# assay name: Toxicity against human dermal fibroblasts
# Format: cell-based, Fibroblast
endpoint: pIC50
Give bare numbers, as −log10 of the molar value.

{"columns": ["mol smiles", "pIC50"],
 "data": [
  ["Oc1ccc(/C=C/c2cc(O)cc(O)c2)cc1", 3.05],
  ["CC1=C(/C=C/C(C)=C/C=C/C(C)=C/CO)C(C)(C)CCC1", 4.30],
  ["C[C@H]1[C@H](C)CC[C@]2(C(=O)O)CC[C@]3(C)C(=CC[C@@H]4[C@@]5(C)CC[C@H](O)C(C)(C)[C@@H]5CC[C@]43C)[C@H]12", 5.46],
  ["COc1cc(O)c(C(=O)OC/C=C(C)/C=C/C=C(C)/C=C/C2=CCCCC2(C)C)c(O)c1", 4.85],
  ["COc1cccc(O)c1C(=O)OC/C=C(C)/C=C/C=C(C)/C=C/C1=CCCCC1(C)C", 3.64],
  ["CC(/C=C/C1=CCCCC1(C)C)=C\\C=C\\C(C)=C\\COC(=O)c1cc(O)ccc1O", 4.85]
]}

Record pIC50 for all entries; do not skip any.
1. CC(/C=C/C1=CCCCC1(C)C)=C\C=C\C(C)=C\COC(=O)c1cc(O)c2ccccc2c1O
2. CC(/C=C/C1=CCCCC1(C)C)=C\C=C\C(C)=C\COC(=O)c1ccc(O)cc1O
3. CC(/C=C/C1=CCCCC1(C)C)=C\C=C\C(C)=C\COC(=O)c1c(O)cccc1O
4. COc1ccc(O)c(C(=O)OC/C=C(C)/C=C/C=C(C)/C=C/C2=CCCCC2(C)C)c1
5. COc1cccc(C(=O)OC/C=C(C)/C=C/C=C(C)/C=C/C2=CCCCC2(C)C)c1O

result:
[3.38, 3.92, 4.85, 3.24, 4.57]
